# System: rat trachea rings
# Method Summary: Tracheal relaxation assay (carbachol precontracted rings)
# Settings: average percentage of carbachol-induced rat tracheal ring contraction at 1 μM of test compound
Measured Property: Trachael Ring Contraction, %

{"columns": ["Compound Smiles", "Result"],
 "data": [
  ["Clc1ccc(CN2CCC[C@@H](Nc3ccc4[nH]ncc4c3)C2)cc1", "42%"],
  ["CCc1ccc(CN2CCC[C@@H](Nc3ccc4[nH]ncc4c3)C2)cc1", "45%"],
  ["Cc1ccc(CN2CC[C@@H](Nc3cccc4cnccc34)C2)cc1", "33%"],
  ["CS(=O)(=O)Nc1cccc(CN2CC[C@@H](Nc3cccc4cnccc34)C2)c1", "57%"],
  ["c1cc2cc(CN3CCC[C@H](Nc4ccc5[nH]ncc5c4)C3)ccc2o1", "40%"],
  ["C#Cc1cccc(CN2CCC[C@H](Nc3ccc4[nH]ncc4c3)C2)c1", "41%"],
  ["Cc1ccc(CN2CCC[C@@H](Nc3ccc4[nH]ncc4c3)C2)cc1O", "33%"],
  ["CSc1ccc(CN2CCC[C@@H](Nc3ccc4[nH]ncc4c3)C2)cc1", "40%"]
]}

====

# Target Of Assay: ERK2 (Homo sapiens)
# Construct: purchased Upstate, Millipore Bioscience Division (KinaseProfiler service)
# Sequence (P28482 whole entry): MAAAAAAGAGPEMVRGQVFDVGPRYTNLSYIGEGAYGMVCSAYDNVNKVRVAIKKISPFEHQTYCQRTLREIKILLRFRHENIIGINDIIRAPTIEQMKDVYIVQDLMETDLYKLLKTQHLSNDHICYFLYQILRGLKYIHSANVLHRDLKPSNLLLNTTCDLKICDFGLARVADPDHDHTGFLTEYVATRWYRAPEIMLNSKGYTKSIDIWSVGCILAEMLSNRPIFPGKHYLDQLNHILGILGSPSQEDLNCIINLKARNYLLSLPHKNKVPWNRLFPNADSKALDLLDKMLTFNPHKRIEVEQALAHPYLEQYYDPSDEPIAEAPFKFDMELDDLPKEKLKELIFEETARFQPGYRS
# Method Summary: Kinase panel screen (KinaseProfiler), ERK2
# Format: biochemical
# Settings: 1 μM test compound, 10 μM ATP
Parameter Percent inhibition, ERK2: see the listing below.
Measured Property: Percent inhibition, ERK2 (%)

{"columns": ["Compound Smiles", "Target Of Assay", "Measured Property", "Recorded Number"],
 "data": [
  ["NC(=O)Cn1ccc2cc(CN3CC[C@@H](Nc4cccc5cnccc45)C3)ccc21", "ERK2 (Homo sapiens)", "Percent inhibition, ERK2", 56],
  ["Cc1ccc(CN2CCC[C@@H](Nc3ccc4[nH]ncc4c3)C2)cc1OCCO", "ERK2 (Homo sapiens)", "Percent inhibition, ERK2", 104],
  ["OCCn1ccc2cc(CN3CC[C@@H](Nc4cccc5cnccc45)C3)ccc21", "ERK2 (Homo sapiens)", "Percent inhibition, ERK2", 50],
  ["NC(=O)Cn1ccc2cc(CN3CCC[C@@H](Nc4ccc5[nH]ncc5c4)C3)ccc21", "ERK2 (Homo sapiens)", "Percent inhibition, ERK2", 89]
]}

====

# System: rat trachea rings
# Method Summary: Tracheal relaxation assay (carbachol precontracted rings);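 further: isometric tension of rat tracheal rings in Krebs buffer with 1 µM indomethacin, compounds added cumulatively at 30 min intervals, basal tension subtracted, fit to Hill equation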
# Settings: 10 μM compound; 1 μM carbachol
Measured Property: Percentage of carbachol-induced contraction at 10 μM compound, Avg %

{"columns": ["Molecule", "Result"],
 "data": [
  ["CSc1ccc(CN2CCC[C@@H](Nc3ccc4[nH]ncc4c3)C2)cc1", "−15.1%"],
  ["OCCOc1cccc(CN2CCC[C@@H](Nc3ccc4[nH]ncc4c3)C2)c1", "−2.9%"],
  ["C[C@@H](N)c1ccc(C(=O)Nc2ccnc3[nH]ccc23)cc1 [Compound Y-39983, reference compound]", "−6.0%"],
  ["C[C@@H](N)[C@H]1CC[C@H](C(=O)Nc2ccncc2)CC1 [Compound Y-27632, reference compound]", "23.4%"],
  ["CS(=O)(=O)Nc1cccc(CN2CC[C@@H](Nc3cccc4cnccc34)C2)c1", "10.2%"],
  ["CCS(=O)(=O)Nc1cccc(CN2CCC[C@@H](Nc3ccc4[nH]ncc4c3)C2)c1", "4.6%"],
  ["CS(=O)(=O)Nc1cccc(CN2CCC[C@H](Nc3ccc4[nH]ncc4c3)C2)c1", "14.3%"],
  ["Cc1cncc2cccc(S(=O)(=O)N3CCCNC[C@@H]3C)c12 [Compound H-1152, reference compound]", "−6.5%"],
  ["CCc1ccc(CN2CCC[C@@H](Nc3ccc4[nH]ncc4c3)C2)cc1", "19.7%"],
  ["NC(=O)Cn1ccc2ccc(CN3CCC[C@H](Nc4ccc5[nH]ncc5c4)C3)cc21", "9.9%"],
  ["CSc1ccc(CN2CC[C@@H](Nc3cccc4cnccc34)C2)cc1", "17.1%"],
  ["CS(=O)(=O)Nc1cccc(CN2CCC[C@H](Nc3cccc4cnccc34)C2)c1", "21.3%"],
  ["c1cc2cc(CN3CCC[C@@H](Nc4ccc5[nH]ncc5c4)C3)ccc2o1", "14.2%"],
  ["Cc1ccc(CN2CCC[C@H](Nc3cccc4cnccc34)C2)cc1", "13.6%"],
  ["OCCOc1cccc(CN2CC[C@@H](Nc3cccc4cnccc34)C2)c1", "6.2%"],
  ["CCS(=O)(=O)Nc1cccc(CN2CCC[C@H](Nc3ccc4[nH]ncc4c3)C2)c1", "19.7%"],
  ["CCS(=O)(=O)Nc1cccc(CN2CC[C@@H](Nc3cccc4cnccc34)C2)c1", "−5.4%"]
]}

The origin of these recorded values is patent US20130172324A1.
